Biological target: KDM7A (KIAA1718) dual domain
Sequence (chain, as listed by the source): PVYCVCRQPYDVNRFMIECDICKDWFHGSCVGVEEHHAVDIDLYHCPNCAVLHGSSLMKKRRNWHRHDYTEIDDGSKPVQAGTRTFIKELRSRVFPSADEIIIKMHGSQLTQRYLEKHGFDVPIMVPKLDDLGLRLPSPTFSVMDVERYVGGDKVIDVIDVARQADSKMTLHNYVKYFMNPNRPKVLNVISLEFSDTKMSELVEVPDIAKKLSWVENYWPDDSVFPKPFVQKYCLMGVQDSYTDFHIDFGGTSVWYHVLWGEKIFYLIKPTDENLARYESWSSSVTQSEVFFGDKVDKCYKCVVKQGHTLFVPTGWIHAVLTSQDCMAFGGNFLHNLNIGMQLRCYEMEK
Test: ITC
pKd: −log10 of the molar value. Bridge positions count the residues as written; N and C are the ends. Ends that are not written are not given here.
property measured: pKd

                                     binder  value_observed
0  {CH2CO}-YYLTHPYPSVFRTC (thioether N-14) [OC9, de novo cyclic peptide from mRNA display]            7.50

Source: paper PMC10321576
